Measured values drawn from ChEMBL document CHEMBL5727716 for this set.

# Measurement target: Mucosa-associated lymphoid tissue lymphoma translocation protein 1 (Homo sapiens)
# Sequence (Q9UDY8 whole entry, the tested form may be a part): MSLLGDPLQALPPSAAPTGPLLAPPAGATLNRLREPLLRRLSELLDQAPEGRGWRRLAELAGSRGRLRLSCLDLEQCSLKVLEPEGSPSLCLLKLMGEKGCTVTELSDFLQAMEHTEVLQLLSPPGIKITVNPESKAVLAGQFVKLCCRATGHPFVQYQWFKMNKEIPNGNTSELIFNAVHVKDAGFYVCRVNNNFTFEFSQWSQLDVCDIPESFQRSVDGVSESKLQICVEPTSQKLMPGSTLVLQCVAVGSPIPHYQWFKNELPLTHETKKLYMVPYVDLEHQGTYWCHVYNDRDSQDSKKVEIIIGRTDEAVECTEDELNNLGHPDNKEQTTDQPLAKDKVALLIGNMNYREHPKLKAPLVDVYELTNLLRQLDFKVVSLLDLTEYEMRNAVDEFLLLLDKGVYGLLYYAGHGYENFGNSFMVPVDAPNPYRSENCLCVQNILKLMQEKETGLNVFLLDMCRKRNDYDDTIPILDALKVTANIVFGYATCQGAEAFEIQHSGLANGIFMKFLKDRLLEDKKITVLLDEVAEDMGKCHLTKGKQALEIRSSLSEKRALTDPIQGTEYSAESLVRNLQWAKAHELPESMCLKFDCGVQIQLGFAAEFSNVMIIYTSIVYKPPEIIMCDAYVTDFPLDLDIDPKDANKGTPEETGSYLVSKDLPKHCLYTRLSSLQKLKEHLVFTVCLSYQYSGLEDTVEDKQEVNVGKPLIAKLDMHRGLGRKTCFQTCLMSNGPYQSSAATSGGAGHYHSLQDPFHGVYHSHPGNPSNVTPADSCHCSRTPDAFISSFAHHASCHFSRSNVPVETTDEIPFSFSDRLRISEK
# Measurement protocol: Inhibition of Protease Activity Assay: Full-length cDNA of human MALT1 gene (GenBank accession No: AB026118.1) amplified by PCR was inserted in flame to a SalI site located downstream of GST gene in a pGEX6P3 vector (GE Healthcare Japan Corp.) to prepare a vector (hereinafter, referred to as a pGEX6P3-MALT1 vector). Subsequently, E. coli for protein expression (BL21-RIL-codon plus-DE3, Agilent Technologies, Inc.) was transformed with the pGEX6P3-MALT1 vector and then analyzed by ampicillin resistance screening and colony PCR to obtain an E. coli strain expressing recombinant GST fusion MALT1. Protein expression was induced with isopropyl-(3-thiogalactopyranoside. After the expression induction, E. coli precipitates were recovered by centrifugation from the E. coli culture solution, and the E. coli precipitates were homogenized and then centrifuged to obtain a supernatant. The supernatant was purified using GSTrap FF column (GE Healthcare Japan Corp.) to obtain recombinant GST fusion MALT1.B) Evaluation of Inhibition of Protease Activity of MALT1:To 89 μL of an enzyme solution ([…] GST fusion MALT1, 50 mmol/L MES, 150 mmol/L NaCl, 10% sucrose, 0.1% CHAPS, 10 mmol/L dithiothreitol, and 1 mol/L tri-ammonium citrate) per specimen, 1 μL of a test compound (DMSO-diluted solution) of each concentration was added to prepare a mixed solution. The mixed solution was incubated at room temperature for 30 minutes, followed by the measurement of the fluorescence value of the mixed solution (fluorescence value of the first measurement) (Ex: 380 nm, Em: 460 nm; Envision (Perkin Elmer Inc.)). Next, 10 μL of 200 μmol/L substrate (Ac-LRSR-AMC, SM Biochemicals LLC) was added (final concentration: 20 μmol/L) to the mixed solution, and the mixture was reacted by incubation at 30° C. for 80 minutes, followed by the measurement of the fluorescence value of the reaction solution (fluorescence value of the second measurement) (Ex: 380 nm, Em: 460 nm; Envision (Perkin Elmer Inc.)).
pIC50: −log10 of the molar value.
Measurement name: pIC50

[
  {
    "Smiles str": "CCCC(=O)/N=C(\\N)NCc1cnc(-c2ccc(Cl)cc2)c(-c2ccc(Cl)cc2)c1",
    "Reported measurement": 6.24
  }
]
